Data origin, for the record: ChEMBL document CHEMBL3352532

System: Mus musculus
Experiment: Anticonvulsant activity in ip dosed Swiss CF1 mouse measured after 4 hrs by scPTZ test
Type: functional
Calls of active or inactive are those of the source. The calls are words filed in the database; no cut-off is given here.
Measured Parameter: MED50

Molecule	System Name	Measured Parameter	Value
O=C(CNC(=O)c1ccccc1)NN1C(=O)CSC1c1c[nH]c2ccccc12 (stereo unspecified)	Mus musculus	MED50	inactive
COc1ccc(C2SCC(=O)N2NC(=O)CNC(=O)c2ccccc2)cc1OC (stereo unspecified)	Mus musculus	MED50	300 mg/kg
CCCC(CCC)C(=O)[O-].[Na+] [VALPROATE SODIUM]	Mus musculus	MED50	inactive
COc1ccc(C2SCC(=O)N2NC(=O)CNC(=O)c2ccccc2)cc1 (stereo unspecified)	Mus musculus	MED50	inactive
O=C(CNC(=O)c1ccccc1)NN1C(=O)CSC1c1cccc(Cl)c1 (stereo unspecified)	Mus musculus	MED50	inactive

Value of MED50 reported for the molecule O=C(CNC(=O)c1ccccc1)NN1C(=O)CSC1c1ccc(O)cc1 (stereo unspecified) is inactive

Value of MED50 reported for the molecule O=C(CNC(=O)c1ccccc1)NN1C(=O)CSC1c1ccc(Cl)cc1 (stereo unspecified) is inactive

Value of MED50 reported for the molecule O=C(CNC(=O)c1ccccc1)NN1C(=O)CSC1c1ccccc1 (stereo unspecified) is 300 mg/kg

Value of MED50 reported for the molecule O=C(CNC(=O)c1ccccc1)NN1C(=O)CSC1c1ccc(F)cc1 (stereo unspecified) is inactive

Value of MED50 reported for the molecule COc1cc(C2SCC(=O)N2NC(=O)CNC(=O)c2ccccc2)cc(OC)c1OC (stereo unspecified) is 300 mg/kg

Value of MED50 reported for the molecule O=C(CNC(=O)c1ccccc1)NN1C(=O)CSC1c1ccccc1Cl (stereo unspecified) is inactive

====

Exercise: state measured TD50 at 4 h for each of the compounds provided.
Experiment: Neurotoxicity in ip dosed Swiss CF1 mouse assessed as induction of motor impairment measured after 4 hrs by rotorod test
Format: toxicity, organism-based
Settings: in vivo, read-out: MTD50
Please reply with the bare figure in mg/kg and do not write the unit itself.

Value of TD50 at 4 h reported for the compound O=C(CNC(=O)c1ccccc1)NN1C(=O)CSC1c1cccc(Cl)c1 (configuration not stated) is 30

Value of TD50 at 4 h reported for the compound O=C(CNC(=O)c1ccccc1)NN1C(=O)CSC1c1c[nH]c2ccccc12 (configuration not stated) is 100

Value of TD50 at 4 h reported for the compound O=C(CNC(=O)c1ccccc1)NN1C(=O)CSC1c1ccccc1Cl (configuration not stated) is 100

Value of TD50 at 4 h reported for the compound O=C(CNC(=O)c1ccccc1)NN1C(=O)CSC1c1ccccc1 (configuration not stated) is 300

Value of TD50 at 4 h reported for the compound COc1cc(C2SCC(=O)N2NC(=O)CNC(=O)c2ccccc2)cc(OC)c1OC (configuration not stated) is 100

Value of TD50 at 4 h reported for the compound O=C(CNC(=O)c1ccccc1)NN1C(=O)CSC1c1ccc(F)cc1 (configuration not stated) is 300

Value of TD50 at 4 h reported for the compound COc1ccc(C2SCC(=O)N2NC(=O)CNC(=O)c2ccccc2)cc1 (configuration not stated) is 300

====

System: Mus musculus
Assay: Behavioral activity in Swiss CF1 mouse assessed as activity score at 100 mg/kg, ip measured after 4 hrs post dose by actophotometry
Format: organism-based
Parameters: dose 100 mg/kg, route intraperitoneal
Conditions: in vivo
Exercise: state measured Activity for each of the compounds provided.
Reply with just the number.

Value of Activity reported for the compound COc1cc(C2SCC(=O)N2NC(=O)CNC(=O)c2ccccc2)cc(OC)c1OC (stereo not given) is 101

Value of Activity reported for the compound O=C(CNC(=O)c1ccccc1)NN1C(=O)CSC1c1cccc(Cl)c1 (stereo not given) is 108.2

Value of Activity reported for the compound COc1ccc(C2SCC(=O)N2NC(=O)CNC(=O)c2ccccc2)cc1 (stereo not given) is 80.2

Value of Activity reported for the compound COc1ccc(C2SCC(=O)N2NC(=O)CNC(=O)c2ccccc2)cc1OC (stereo not given) is 88.6

Value of Activity reported for the compound O=C(CNC(=O)c1ccccc1)NN1C(=O)CSC1c1ccccc1 (stereo not given) is 94.8

Value of Activity reported for the compound O=C(CNC(=O)c1ccccc1)NN1C(=O)CSC1c1ccc(F)cc1 (stereo not given) is 94

Value of Activity reported for the compound O=C(CNC(=O)c1ccccc1)NN1C(=O)CSC1c1c[nH]c2ccccc12 (stereo not given) is 120

Value of Activity reported for the compound O=C(CNC(=O)c1ccccc1)NN1C(=O)CSC1c1ccc(O)cc1 (stereo not given) is 99.6

Value of Activity reported for the compound O=C(CNC(=O)c1ccccc1)NN1C(=O)CSC1c1ccccc1Cl (stereo not given) is 110.8

Value of Activity reported for the compound O=C(CNC(=O)c1ccccc1)NN1C(=O)CSC1c1ccc(Cl)cc1 (stereo not given) is 71.6
